- PROTOCOL SUMMARY: yeast display, Sf9 membrane polyspecificity reagent, FACS + sequencing; frameworks hold sequencing errors
READOUT NAME: polyreactivity (PSR sort gate)

Example entries begin here.
QVQLVESGGGLVQAGGSLRLSCAASGITFSYYAMGWYRQAPGKERELVAASTSGGSTKYADSVKGRFTISRDNAKNTVYFQMNSLKPEDTAVYYCAVRIRRSHDYDYWGQGPQVTVSS
low polyreactivity
QVQLVESGGGLVQAGGSLRLSCAASGITFTRYAMGWYRQAPGKEREFVAAIRRSGGNTYYADSVKGRFTISRDNAKNTVYLQMNSLKPEDTAVYYCAASPDIIGTSGEDDYWGQGSQVTVSS
low polyreactivity
QVQLVESGGGLVQAGGSLRLSCAASGLTFSRYAMGWYRQAPGKERELVAAITSIGGSTYYADSVKGRFTISRDNAKNTVYLQMNSLKPEDTAVYYCRAFFRRDYWGQGTQVTVSS
high polyreactivity
QVHLVESGGGLVQAGGSLRLSCSASGFTFGSNAMGWYRQAPGKERELVAAINYSGLRTYYADSVKGRFTISRDNAKNTVYLQMNSLKPEDTAVYDCAARTSIVTRLRYGYWGQGTQVTVSS
high polyreactivity

Please turn your attention to the following entry.
Please report the recorded polyreactivity (PSR sort gate) for `QVQLVESGGGLVQAGGSLRLSCADSGITFDWNTMGWYRQAPGKERELVAAITFRSGSTYYADSVKGRFTISRDNAKNTVYLQMNSLKPEDTAVYYCNKDTAYTSPRFDYWGQGTQVTVSS` . high polyreactivity

* * *

- PROTOCOL SUMMARY: yeast display, Sf9 membrane polyspecificity reagent, FACS + sequencing; frameworks hold sequencing errors
READOUT NAME: polyreactivity (PSR sort gate)

Example entries begin here.
QVQLVESVGGLVQAGGSLRLSCAASGSIFIANAIGWYRQAPGKERELVAAISWSGGRTYYADSVKGRFTISRDNAKNTVYLQMNSLKPEDTAVYYCAAVYGAYDSGRFLSFGNFDYWGQGTQVTVSS
high polyreactivity
QVQLVESGGGLVQAGGSLRLSCAASGSIFYYNVMGWYRQAPGKETELVAAISQSGVRTYYADSVKGRFTISRDNAKNTVYLQMNSLKPEDTAVYYCAAKARRLYASSYDYWGQGTQVTVSS
high polyreactivity
QVQLVESGGGLVQAGGSLRLSCAASGSTCWSYAMGWYRQAPGKERELVATITRAGTTNYADSVKGRFTISRDNAKNTVSLQRNSLNPEDTAVYYCAKRIFRWPYQGSYSFIPFGYWGQGTQVTVSS
high polyreactivity
QVQLVESGGGLVQAGGSLRLSCAASGGTFSSNDMGWYRQAPGKERELVAAISWSGSSTDYADSVKGRFTISRDNAKNTVYLQMNSLKPDDTAVYYCNTDYWEITYSGVIWPEYDYWGQCTQVTVSS
low polyreactivity

Looking for the measured polyreactivity (PSR sort gate) of `QEQLQVSGGHLVQAGGSLRLSCAASGTIYGLTSMGWYRQAPGKEREFVAAITDGGNTNYADSVKGRFTISRDNAKKTVYLLMFCLKPEDTAVYYCAVLFSDDAYYAYWCQGTQVTVSS` , can you help? low polyreactivity

* * *

- PROTOCOL SUMMARY: yeast display, Sf9 membrane polyspecificity reagent, FACS + sequencing; frameworks hold sequencing errors
READOUT NAME: polyreactivity (PSR sort gate)

Field: example entries. Status: answers known.
QVQLVESGGGLVQAGGSLRLRCAASGITFRNYAMGWYRQAPGKEMEFVATISRRAGSTYYADSVKGRFTISRDNAKNTVYLQMNRLKPEDTAVYYCAVRPSYVYFLGARYDYWGQGTQVTVSS
high polyreactivity
QVQLVESGGGLVQAGGSLRLSCAASGSTFNGYAMGWYRQAPGKERELVAAINWTGDSTYYADSVKGRFTISRDNAKNTVYLQMNSLKPEDTAVYYCAAIRRQKGLWDYYYWGQGTQVTVSS
low polyreactivity
KVQLVESGGGLVQAGGSLRLSCAASGFTLGYYAMGWYRQEPGKEREMVAAITSGGGTNYADSVKGRFTISRDNAKNTVYLQMNSLKPEDSAVYYCAARARWIYGMYSWGQGTQVTLSS
low polyreactivity
QVQLVESGGGLVQAGGSLRLSCAASGLIFTSYAMGWYRQATGKERELVAAISGSAASTYYADSVKGRFTISRDNAKNTVYLQMNSLKPEDTAVYYCAADYQGYTPSDGRYYWGQGTQVTVSS
low polyreactivity
QVQLVESGGGLVQAGGSLRLSCAASGLTFRGYAMGWYRQAPGKERELVAAITSSAGRTYYADSVKGRFTISRDNAKNTVYLQMNSLKPEDTAVYYCAAEYASWFGSMNYWGQGTQVTVSS
high polyreactivity

GET /values?readout=polyreactivity (PSR sort gate)&item= `QVQLVESGGGLVQAGRSLRLSCAASGFTFSWYTMGWYRQAPGKERELVAAISSSGGNTYYADSVKGRFTISRDNAKNTVYLQMNSLKPEDNAVYYCVARFGSYGYYYWGQGTQVTVSS` high polyreactivity

Can you handle `QVQLVESGGGLVQAGGSLRLSCAASGSTFTTYAMGWYRQAPGKERELVAAISKSGGSTYYADSVKGRFTISRDNAKNTVYLQMNSLKPEDTAVYYCATSFRSTARKYGYWGQGTQVTVSS` next? high polyreactivity

Try this sequence next: `QVQLVESGGGLVQAGGSLRLICAASGSTFAQNTMGWYRQAPGKERELVATISDGGGSTYYADSVKGRFTISRDNAKNTVYLQMNSLKPEDTSVYYCNTDRFWPSDFWGQGTQVTVSS` low polyreactivity

Also `QVQLVESGGCLVQAGGSLRLSCASSGRIFRGYAMGWSRQAPGKERELVAVISYSGTRTYYADSVKGRFTNSRDIAKNTVYLQMNSLKPEETAVYYCNARANGFKDGYWGQGTQVTVSA` ? high polyreactivity

Continue with `QVQLVESGGGLVQAGGSLRLSCAASGGIFDTYAMGWYRQAPGKERELVAAISRRGGNTYYADSVKGRFTIARDNAKNTVYLQMNSLKPEDTAVYYCAAYYHGRMDYWGQGTQVTVSS` high polyreactivity

Moving on to the next sequence: `QVQLVESGGGLVQAGGSLRLSCAASGFIFWPYAMGWYRQAPGKERELVAAITRSGGSTYYADSVKGRFTISRDNAKNTVYLQMNSLKPEDTAVYYCAARKRGTFTYDYWGQGTQVTVSS` high polyreactivity
